Molecular target: WDR5 protein (Homo sapiens (Human), UniProt P61964)
Experiment: Surface Plasmon Resonance (SPR) assay
Assay type: binding
Conditions: SPR, τ=1/koff; read-out: Residence Time (t, min)
Please enter rule met where residence time is greater than or equal to 5 min, and rule not met where it is lower.

See these solved cases before continuing.
{"columns": ["moleculeSmiles", "subjectOfTest", "class"],
 "data": [
  ["CN1CCN(c2ccc(-c3cc(C(=O)N(C)C4CCCCC4)ccc3F)cc2NC(=O)c2c[nH]c(=O)cc2C(F)(F)F)CC1", "WDR5 protein (Homo sapiens (Human), UniProt P61964)", "rule met"],
  ["Cc1cc(C(=O)Nc2cc(-c3cc(CN4CCOCC4)ccc3F)ccc2N2CCN(C)CC2)cc(C)c1F", "WDR5 protein (Homo sapiens (Human), UniProt P61964)", "rule not met"],
  ["CN1CCN(c2ccc(-c3cc(CN4CCC(F)CC4)ccc3F)cc2NC(=O)c2c[nH]c(=O)cc2C(F)(F)F)CC1", "WDR5 protein (Homo sapiens (Human), UniProt P61964)", "rule met"],
  ["CN1CCN(c2ccc(-c3ccc(CNC4CCCCC4)cc3F)cc2NC(=O)c2c[nH]c(=O)cc2C(F)(F)F)CC1", "WDR5 protein (Homo sapiens (Human), UniProt P61964)", "rule not met"],
  ["C[C@@H]1CN(c2ccc(-c3ccc(F)c(CNC4CCCCC4)c3F)cc2NC(=O)c2c[nH]c(=O)cc2C(F)(F)F)C[C@H](C)N1C", "WDR5 protein (Homo sapiens (Human), UniProt P61964)", "rule not met"]
]}

State whether the measured residence time reaches 5 min, counting equality as reaching it, for CN1CCN(c2ccc(-c3cc(CN4CCC(N5CCOCC5)CC4)ccc3F)cc2NC(=O)c2c[nH]c(=O)cc2C(F)(F)F)CC1
rule met

State whether the measured residence time reaches 5 min, counting equality as reaching it, for C[C@@H]1CN(c2ccc(-c3ccc(N4CCOCC4)cc3F)cc2NC(=O)c2c[nH]c(=O)cc2C(F)(F)F)C[C@H](C)N1C
rule met

Each recorded value in this set is attributed to patent US11174250B2.
